Molecular target: KRAS G12C (GMPPNP-loaded) and PI3Ka (Ras-binding domain) interaction (Homo sapiens (Human), UniProt P01116, C118S/C51S/C80L/G12C)
Sequence (P01116 other isoform, or with tags, fused parts or gaps G12C/C51S/C80L/C118S): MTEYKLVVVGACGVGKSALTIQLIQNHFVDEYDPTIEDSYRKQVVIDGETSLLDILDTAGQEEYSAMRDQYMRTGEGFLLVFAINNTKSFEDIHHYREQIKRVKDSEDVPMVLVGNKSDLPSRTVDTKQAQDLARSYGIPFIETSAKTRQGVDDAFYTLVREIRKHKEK
Assay: Inhibition of KRAS G12C and PI3Ka binding (AlphaScreen)
Conditions: KRAS G12C loaded with GMPPNP, PI3Ka RBD, 2 hours preincubation; read-out: PI3K RBD K-Ras IC50
Collected IC50 values appear next to each entry.
Recorded Metric: IC50

1) N#CC[C@H]1CN(c2nc(OC[C@@]34CCCN3C[C@H](F)C4)nc3c(F)c(-c4cccc5cccc(Cl)c45)ncc23)CCN1C(=O)/C=C/CN1C[C@@H]2C[C@H]1CO2	< 10 nM
2) N#CC[C@H]1CN(c2nc(OC[C@@]34CCCN3C[C@H](F)C4)nc3c(F)c(-c4cccc5cccc(Cl)c45)ncc23)CCN1C(=O)/C=C/CN1CC2CCC(C1)O2	< 10 nM
3) N#CC[C@H]1CN(c2nc(OC[C@@]34CCCN3C[C@H](F)C4)nc3c(F)c(-c4cccc5cccc(F)c45)ncc23)CCN1C(=O)/C=C/CN1[C@@H]2CC[C@H]1COC2	< 10 nM
4) CC(F)(F)c1noc(/C=C/C(=O)N2CCN(c3nc(OC[C@@]45CCCN4C[C@H](F)C5)nc4c3CCN(c3cccc5cccc(Cl)c35)C4)C[C@@H]2CC#N)n1	< 10 nM
5) N#CC[C@H]1CN(c2nc(OC[C@@]34CCCN3C[C@H](F)C4)nc3c(F)c(-c4cccc5ccc(F)c(Cl)c45)ncc23)CCN1C(=O)/C=C/CN1C[C@H]2C[C@@H]1CO2	< 10 nM
6) C[C@H]1CN(C/C=C/C(=O)N2CCN(c3nc(OC[C@@]45CCCN4C[C@H](F)C5)nc4c(F)c(-c5cccc6cccc(Cl)c56)ncc34)C[C@@H]2CC#N)C[C@H](C)O1	< 10 nM
7) Cc1noc(/C=C/C(=O)N2CCN(c3nc(OC[C@@]45CCCN4C[C@H](F)C5)nc4c(F)c(-c5cccc6cccc(Cl)c56)ncc34)C[C@@H]2CC#N)n1	10 to 100 nM
8) N#CC[C@H]1CN(c2nc(OC[C@@]34CCCN3C[C@H](F)C4)nc3c(F)c(-c4cccc5ccc(F)c(Cl)c45)ncc23)CCN1C(=O)/C=C/CN1CC2(COC2)C1	< 10 nM
9) N#CC[C@H]1CN(c2nc(OCC34CCCN3CCC4)nc3c2CCN(c2cccc4cccc(Cl)c24)C3)CCN1C(=O)/C=C/c1nc(C(F)(F)F)no1	< 10 nM
10) N#CC[C@H]1CN(c2nc(OC[C@@]34CCCN3C[C@H](F)C4)nc3c(F)c(-c4cccc5cccc(Cl)c45)ncc23)CCN1C(=O)/C=C/CN1CC[C@H](F)C1	< 10 nM
11) Cc1nccc(/C=C/C(=O)N2CCN(c3nc(OCC45CCCN4CCC5)nc4c(F)c(-c5cccc6cccc(Cl)c56)ncc34)C[C@@H]2CC#N)n1	< 10 nM
12) Cc1cc(/C=C/C(=O)N2CCN(c3nc(OC[C@@]45CCCN4C[C@H](F)C5)nc4c(F)c(-c5cccc6ccc(F)c(F)c56)ncc34)C[C@@H]2CC#N)nc(C)n1	< 10 nM
13) Cc1cc(/C=C/C(=O)N2CCN(c3nc(OC[C@@]45CCCN4C[C@H](F)C5)nc4c(F)c(-c5cccc(Cl)c5C5CC5)ncc34)C[C@@H]2CC#N)nc(C)n1	< 10 nM
14) CC(C)c1noc(/C=C/C(=O)N2CCN(c3nc(OC[C@]45CCCN4C[C@H](F)C5)nc4c3CCN(c3cccc5ccc(F)c(Cl)c35)C4)C[C@@H]2CC#N)n1	10 to 100 nM
15) N#CC[C@H]1CN(c2nc(OC[C@@]34CCCN3C[C@H](F)C4)nc3c(F)c(-c4cccc5ccc(F)c(F)c45)ncc23)CCN1C(=O)/C=C/CN1[C@@H]2CC[C@H]1COC2	< 10 nM
16) N#CC[C@H]1CN(c2nc(OC[C@@]34CCCN3C[C@H](F)C4)nc3c(F)c(-c4cccc5cccc(Cl)c45)ncc23)CCN1C(=O)/C=C/c1ccnc(C2CC2)n1	< 10 nM
17) C[C@@H]1CN(C/C=C/C(=O)N2CCN(c3nc(OC[C@@]45CCCN4C[C@H](F)C5)nc4c(F)c(-c5cccc6cccc(Cl)c56)ncc34)C[C@@H]2CC#N)C[C@H](C)O1	10 to 100 nM
18) Cc1cc(/C=C/C(=O)N2CCN(c3nc(OC[C@@]45CCCN4C[C@H](F)C5)nc4c(F)c(-c5cccc6cccc(F)c56)ncc34)C[C@@H]2CC#N)nc(C)n1	< 10 nM
19) CN1CCC1/C=C/C(=O)N1CCN(c2nc(OC[C@@]34CCCN3C[C@H](F)C4)nc3c(F)c(-c4cccc5cccc(Cl)c45)ncc23)C[C@@H]1CC#N (stereo partly drawn)	10 to 100 nM
20) Cc1nsc(/C=C/C(=O)N2CCN(c3nc(OCC45CCCN4CCC5)nc4c3CCN(c3cccc5ccc(F)c(Cl)c35)C4)C[C@@H]2CC#N)n1	< 10 nM
21) N#CC[C@H]1CN(c2nc(OC[C@@]34CCCN3C[C@H](F)C4)nc3c(F)c(-c4cccc5ccc(F)c(Cl)c45)ncc23)CCN1C(=O)/C=C/CN1CCCOCC1	< 10 nM
